Assignment: determine reported GI50 for the given molecules.
- System: ACHN renal
- ASSAY COMMENT: NCI tumour cell line growth inhibition, 48 h

Look up GI50 for this molecule: C[C@@H]1C=C(CCCCCCCCCCC[C@H](O)[C@@H]2CCC(=O)O2)C(=O)O1 17.9 µM

Look up GI50 for this molecule: Cc1c(C#N)cccc1-c1cc(-c2cn(Cc3cccc(C(C)(C)O)n3)nn2)nc(N)n1 28.3 µM

Look up GI50 for this molecule: N[C@@H](Cc1c[nH]c2ccccc12)C(=O)NC1CCN(C(=O)c2c[nH]c3ccccc23)CC1 > 100 µM

Look up GI50 for this molecule: Cc1ccc(C(=O)Nc2ccc(CN3CCN(C)CC3)c(C(F)(F)F)c2)cc1C#Cc1cnc(N)cc1C#N 0.074 µM

Look up GI50 for this molecule: C1CC[N-]CC1.C1CC[N-]CC1.C1CC[N-]CC1.C1CC[N-]CC1.[Cl][Rh][Cl] 50.1 µM

Look up GI50 for this molecule: CC[C@]1(O)CC2CN(CCc3c([nH]c4ccccc34)[C@@](C(=O)OC)(c3cc4c(cc3OC)N(C)[C@H]3[C@@](O)(C(=O)OC)[C@H](OC(C)=O)[C@]5(CC)C=CCN6CC[C@]43[C@@H]65)C2)C1 (some centres not stated) 0.076 µM

Look up GI50 for this molecule: Cc1ccc2c(c1)nc(C(=O)c1ccco1)c(C(F)(F)F)[n+]2[O-] > 100 µM

Look up GI50 for this molecule: C=C1C(=O)O[C@H]2[C@H]1CC/C(COC(=O)NCc1cc3ccccc3[nH]1)=C\CC[C@@]1(C)O[C@@H]21 1.38 µM

Look up GI50 for this molecule: NC(=O)c1cnc(N[C@@H]2CCCC[C@@H]2N)nc1Nc1cccc(-n2nccn2)c1 2.69 µM

Look up GI50 for this molecule: Nc1ccccc1C#C/C=C\C#Cc1ccccc1C(F)(F)F 0.323 µM

Look up GI50 for this molecule: COc1cc(Nc2nc3cc(N)cc(N)c3nc2-c2ccccc2)cc(OC)c1 5.65 µM

Look up GI50 for this molecule: CCOP(=O)(OCC)C(NC(c1ccccc1)c1ccccc1)c1ccccc1 (configuration not stated) 13.2 µM

###

Assignment: determine reported TGI for the given compounds.
- Test system: DMS 114 small cell lung
- ASSAY COMMENT: NCI tumour cell line growth inhibition, 48 h

Record Clc1ccc(-n2nnc(C3=NCCN3)c2-c2ccccc2)cc1 : what is its TGI with DMS 114 small cell lung? > 100 µM

Record CSc1nc(NC2OCC(OC(C)=O)C(OC(C)=O)C2OC(C)=O)c2c(OC(C)=O)c(C)c(=O)oc2n1 (configuration not stated) : what is its TGI with DMS 114 small cell lung? > 100 µM

Record COC(=O)C1=C(C)N(NC(N)=O)C2(N)N(NC(N)=O)C(C)=C(C(=O)OC)C12C(=O)OC (configuration not stated) : what is its TGI with DMS 114 small cell lung? > 100 µM

Record Cc1ccc(NC(=O)CC2C(=O)Nc3ccccc3S2=O)cc1C (configuration not stated) : what is its TGI with DMS 114 small cell lung? > 100 µM

Record COc1ccc2[nH]c(-c3ccccn3)cc(=O)c2c1 : what is its TGI with DMS 114 small cell lung? 71.4 µM

Record O=C1NC(=S)NC(=O)C1=Cc1cc2c(cc1[N+](=O)[O-])OCO2 : what is its TGI with DMS 114 small cell lung? 87.3 µM

Record C/C(O)=C(\N=O)C(=O)NCCc1ccccc1 : what is its TGI with DMS 114 small cell lung? > 60 µM

###

- Test system: SF-539 CNS
- ASSAY COMMENT: NCI tumour cell line growth inhibition, 48 h
Assignment: determine reported TGI for the given compounds.

Look up TGI for this compound: COC(=O)c1c(C)cccc1C1CN=NC12Cc1cccc(C)c1C2=O (stereo not given) 44.5 µM

Look up TGI for this compound: Cc1ccc2c(c1)nc(C(=O)c1ccco1)c(C(F)(F)F)[n+]2[O-] > 100 µM

Look up TGI for this compound: O=C(O)Cn1ncn(NC(=O)Cc2ccccc2)c1=S > 10 µM

Look up TGI for this compound: CCC1(O)CC(O)c2c(O)c3c(c(O)c2C1C(=O)OC)C(=O)c1cccc(O)c1C3=O (stereo not given) 14.8 µM

Look up TGI for this compound: CN1CCCC(OC(=O)c2cc3cc(CCl)ccc3oc2=O)C1 (stereo not given) > 100 µM

Look up TGI for this compound: CC(C)(C)N1CCC1C(N)=O (stereo not given) > 100 µM

Look up TGI for this compound: Cc1ccc(C(=O)NN=C(/N=N/c2cccc(C)c2)c2ccc(N(C)C)cc2)cc1 > 100 µM

Look up TGI for this compound: O=C(O)c1cc(Nc2c(O)c3c(c(O)c2Cl)C(=O)C=CC3=O)ccc1O > 10 µM

Look up TGI for this compound: CC(=O)OC[C@H]1O[C@@H](n2ccc(=O)[nH]c2=O)[C@H](OC(C)=O)[C@@H]1OC(C)=O > 100 µM

Look up TGI for this compound: CC(=O)Nc1nc(C)c(S(=O)(=O)NC(=O)N2c3ccccc3CCc3ccccc32)s1 > 100 µM

###

- Test system: SF-295 CNS
- ASSAY COMMENT: NCI tumour cell line growth inhibition, 48 h
Assignment: determine reported TGI for the given molecules.

Look up TGI for this molecule: O=C1C(Cl)C(c2cccc(O)c2)N1n1cnc2ccccc2c1=O (centres undefined) > 100 µM

Look up TGI for this molecule: CCCC[C@H]1C(=O)O[C@H](C)[C@H](NC(=O)c2cccc(NC=O)c2O)C(=O)O[C@@H](C)[C@@H]1OC(=O)CC(C)C 21 µM

Look up TGI for this molecule: Cc1cccc(=O)c([O-])c1.Cc1cccc(=O)c([O-])c1.Cc1cccc(=O)c([O-])c1.Cc1cccc(=O)c([O-])c1.[Th+4] > 100 µM

Look up TGI for this molecule: Cc1sc2nc3n(sc4nc5sc(C)c(C)c5c(=O)n43)c(=O)c2c1C > 100 µM

###

- Tested on: MCF7 breast
- ASSAY COMMENT: NCI tumour cell line growth inhibition, 48 h
MEASURED ENDPOINT: GI50

Look up GI50 for this molecule: CC[C@]1(O)CC2CN(CCc3c([nH]c4ccccc34)[C@@](C(=O)OC)(c3cc4c(cc3OC)N(C)[C@H]3[C@@](O)(C(=O)OC)[C@H](OC(C)=O)[C@]5(CC)C=CCN6CC[C@]43[C@@H]65)C2)C1 (stereo partly drawn) < 5 nM

Look up GI50 for this molecule: C#Cc1cccc(Nc2ncnc3cc(OCCOC)c(OCCOC)cc23)c1 > 100000 nM

Look up GI50 for this molecule: Cc1ccc(C(=O)Nc2ccc(CN3CCN(C)CC3)c(C(F)(F)F)c2)cc1C#Cc1cnc(N)cc1C#N 701 nM

###

- System: HOP-92 NSCLC
- ASSAY COMMENT: NCI tumour cell line growth inhibition, 48 h
MEASURED ENDPOINT: TGI

Record CC1=C([Se]CC(OC(=O)CC[Se]c2ccccc2)C(=O)NCCCCCC(=O)OCc2ccccc2)C(=O)c2ccccc2C1=O (stereo unspecified) : what is its TGI with HOP-92 NSCLC? 5.91 µM

Record CC(O)/C=C/C(CCC(C)CO)C(C)C (stereo unspecified) : what is its TGI with HOP-92 NSCLC? > 100 µM

Record Cc1ccc(S(=O)(=O)CC2CCCn3c2c(C#N)c2ccccc23)cc1 (stereo unspecified) : what is its TGI with HOP-92 NSCLC? > 100 µM

Record O=c1cnc2cc3ccccc3cc2[nH]1 : what is its TGI with HOP-92 NSCLC? > 100 µM

Record O=C(O)Cn1ncn(NC(=O)Cc2ccccc2)c1=S : what is its TGI with HOP-92 NSCLC? > 10 µM

Record CC(C)N(C(=O)C12C3C4C5(C#N)C3C1(I)C5C42I)C(C)C (stereo unspecified) : what is its TGI with HOP-92 NSCLC? > 100 µM

###

Assignment: determine reported TGI for the given compounds.
- System: HCC-2998 colon
- ASSAY COMMENT: NCI tumour cell line growth inhibition, 48 h

Look up TGI for this compound: COc1c(-c2ccc(F)cc2)oc2cc(O)cc(O)c2c1=O 31.9 µM

Look up TGI for this compound: CSc1nc(NC2OCC(OC(C)=O)C(OC(C)=O)C2OC(C)=O)c2c(OC(C)=O)c(C)c(=O)oc2n1 (stereo not given) > 100 µM

Look up TGI for this compound: C=C1[C@@H](C)[C@H]2[C@H](Cc3ccccc3)NC(=O)[C@]23OC(=O)/C=C/[C@H](O)CCC[C@@H](C)C/C=C/[C@H]3[C@@H]1O > 100 µM

Look up TGI for this compound: COc1ccc(/C=N/N=C(\N)NO)cc1OC > 100 µM

Look up TGI for this compound: O=P1(N(CCCl)CCCl)NCCCO1 (stereo not given) > 205 µM

# credit: PubChem BioAssay (NCI)
